- System: Acinetobacter baumannii
- Assay Method Text: Antibacterial activity against Acinetobacter baumannii ATCC 17961 incubated for 16 to 20 hrs by microdilution method
- Type: functional
Exercise: for every item that follows, state its recorded MIC.

>>> recorded_value("N#Cc1ccc(/C=C/c2nc3ccccc3c(=O)n2-c2cccc(F)c2)cc1")
"≥ 16 µg/mL"
>>> recorded_value("N#Cc1ccc(/C=C/c2nc3ccccc3c(=O)n2-c2cccc(C(=O)O)c2)cc1")
"≥ 16 µg/mL"
>>> recorded_value("CC(=O)Oc1ccc(-n2c(/C=C/c3ccc([N+](=O)[O-])cc3)nc3ccccc3c2=O)cc1")
"≥ 16 µg/mL"
>>> recorded_value("CC(=O)Oc1cccc(-n2c(/C=C/c3ccc([N+](=O)[O-])cc3)nc3ccccc3c2=O)c1")
"≥ 16 µg/mL"
>>> recorded_value("O=c1c2cnccc2nc(/C=C/c2ccc(F)cc2)n1-c1cccc(O)c1")
"≥ 16 µg/mL"
>>> recorded_value("CS(=O)(=O)NCc1cccc(-n2c(/C=C/c3ccc(C#N)cc3)nc3ccccc3c2=O)c1")
"≥ 16 µg/mL"

Dear colleague, could you send me MIC for each of the items below? Thanks.
1. COC(=O)Cc1ccc(/C=C/c2nc3ccccc3c(=O)n2-c2cccc(C(=O)O)c2)cc1
2. N#Cc1ccc(/C=C/c2nc3ccncc3c(=O)n2-c2cccc(C(=O)O)c2)cc1
3. N#Cc1ccc(/C=C/c2nc3ccncc3c(=O)n2-c2cccc(C(N)=O)c2)cc1
4. N#Cc1ccc(/C=C/c2nc3ccccc3c(=O)n2-c2cccc(C(=O)NCCC(=O)O)c2)cc1
5. O=c1c2ccccc2nc(/C=C/c2ccc(F)cc2)n1-c1cccc([N+](=O)[O-])c1
6. COC(=O)CCNC(=O)c1cccc(-n2c(/C=C/c3ccc(C#N)cc3)nc3ccccc3c2=O)c1

Result ::
["≥ 16 µg/mL", "≥ 16 µg/mL", "≥ 16 µg/mL", "≥ 16 µg/mL", "≥ 16 µg/mL", "≥ 16 µg/mL"]
